tested-target: T1, Macaca fascicularis IL2Rγ extracellular domain expressed with a C-terminal myc-myc-hexahistidine tag (Macaca fascicularis)
T1 construct: whole entry is the tagged construct; also called mfIL-2Rg-MMH
T1 chain: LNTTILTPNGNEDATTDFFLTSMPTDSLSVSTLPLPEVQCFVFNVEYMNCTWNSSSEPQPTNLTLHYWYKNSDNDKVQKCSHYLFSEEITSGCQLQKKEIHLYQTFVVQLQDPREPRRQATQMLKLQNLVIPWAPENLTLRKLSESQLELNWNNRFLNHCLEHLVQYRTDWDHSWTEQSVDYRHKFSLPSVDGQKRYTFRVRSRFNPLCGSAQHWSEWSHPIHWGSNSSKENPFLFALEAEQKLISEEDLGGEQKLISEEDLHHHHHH
protocol-notes: SPR Biacore 4000, anti-hFc-captured mAb, 37 C
For each record, write down the corresponding 100 nM Ag Bound.
Just the number in RU, nothing appended.

// returns reported 100 nM Ag Bound for input H4H13538P (antibody, human IgG4 S228P, kappa, V domains shown, fully human anti-IL2Rgamma mAb, human IgG4 Fc) VH: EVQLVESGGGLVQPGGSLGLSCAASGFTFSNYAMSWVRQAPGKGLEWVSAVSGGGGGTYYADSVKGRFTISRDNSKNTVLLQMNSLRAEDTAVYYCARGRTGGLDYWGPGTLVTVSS VL: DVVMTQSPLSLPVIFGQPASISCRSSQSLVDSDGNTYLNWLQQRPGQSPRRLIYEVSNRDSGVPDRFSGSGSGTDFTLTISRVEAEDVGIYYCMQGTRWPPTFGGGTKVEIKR 115

Please answer likewise for H4H12863P (antibody, human IgG4 S228P, kappa, V domains shown, fully human anti-IL2Rgamma mAb, human IgG4 Fc) VH: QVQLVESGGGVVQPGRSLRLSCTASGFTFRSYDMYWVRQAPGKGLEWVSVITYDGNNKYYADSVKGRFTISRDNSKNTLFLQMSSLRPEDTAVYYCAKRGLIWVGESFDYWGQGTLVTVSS VL: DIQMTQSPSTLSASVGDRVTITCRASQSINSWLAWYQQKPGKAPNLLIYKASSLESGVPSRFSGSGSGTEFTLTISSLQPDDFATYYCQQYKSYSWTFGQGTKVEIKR 63

Next record, please: H4H12890P (antibody, human IgG4 S228P, kappa, V domains shown, fully human anti-IL2Rgamma mAb, human IgG4 Fc) VH: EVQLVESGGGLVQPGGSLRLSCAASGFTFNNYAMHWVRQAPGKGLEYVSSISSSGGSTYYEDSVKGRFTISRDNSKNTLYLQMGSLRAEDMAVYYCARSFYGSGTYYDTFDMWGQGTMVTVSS VL: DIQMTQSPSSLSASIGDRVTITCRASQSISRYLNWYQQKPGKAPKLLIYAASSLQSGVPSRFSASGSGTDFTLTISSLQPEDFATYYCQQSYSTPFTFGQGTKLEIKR 20

Next up: H4H12858P (antibody, human IgG4 S228P, kappa, V domains shown, fully human anti-IL2Rgamma mAb, human IgG4 Fc; also called REGN9433) VH: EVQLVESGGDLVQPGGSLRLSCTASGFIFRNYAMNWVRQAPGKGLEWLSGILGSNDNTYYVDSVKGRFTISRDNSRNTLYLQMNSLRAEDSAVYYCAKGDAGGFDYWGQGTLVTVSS VL: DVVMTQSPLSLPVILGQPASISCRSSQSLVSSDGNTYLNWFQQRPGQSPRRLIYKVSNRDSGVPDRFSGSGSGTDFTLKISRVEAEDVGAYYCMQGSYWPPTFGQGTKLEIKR 47

Param item: H4H13541P (antibody, human IgG4 S228P, kappa, V domains shown, fully human anti-IL2Rgamma mAb, human IgG4 Fc) VH: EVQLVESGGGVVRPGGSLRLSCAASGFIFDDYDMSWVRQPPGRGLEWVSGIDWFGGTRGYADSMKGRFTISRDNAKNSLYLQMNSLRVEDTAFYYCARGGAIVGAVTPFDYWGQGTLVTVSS VL: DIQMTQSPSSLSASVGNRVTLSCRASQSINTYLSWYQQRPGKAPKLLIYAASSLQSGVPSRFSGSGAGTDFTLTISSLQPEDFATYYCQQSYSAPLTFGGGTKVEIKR 111

Check H4H12899P (antibody, human IgG4 S228P, kappa, V domains shown, fully human anti-IL2Rgamma mAb, human IgG4 Fc) VH: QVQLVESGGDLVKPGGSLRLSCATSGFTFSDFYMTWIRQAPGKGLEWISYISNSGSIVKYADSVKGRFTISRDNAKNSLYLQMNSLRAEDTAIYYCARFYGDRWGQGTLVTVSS VL: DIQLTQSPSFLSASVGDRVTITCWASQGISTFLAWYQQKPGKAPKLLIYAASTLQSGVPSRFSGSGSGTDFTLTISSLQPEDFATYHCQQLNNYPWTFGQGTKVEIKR too. 31

Same question for H4H12871P (antibody, human IgG4 S228P, kappa, V domains shown, fully human anti-IL2Rgamma mAb, human IgG4 Fc; also called REGN9434) VH: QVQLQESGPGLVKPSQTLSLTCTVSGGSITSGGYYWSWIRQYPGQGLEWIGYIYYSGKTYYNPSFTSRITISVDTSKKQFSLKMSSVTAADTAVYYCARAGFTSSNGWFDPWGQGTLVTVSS VL: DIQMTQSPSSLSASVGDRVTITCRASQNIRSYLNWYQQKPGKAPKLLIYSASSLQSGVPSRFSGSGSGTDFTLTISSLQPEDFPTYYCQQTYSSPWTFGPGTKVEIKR please. 55

Just for reference, patent US20200247894A1 is where these values come from.
